Origin of measurements: patent US20240270821A1

- system tested: hGLP-1R (Homo sapiens, UniProt P43220)
- Sequence (P43220 24-463): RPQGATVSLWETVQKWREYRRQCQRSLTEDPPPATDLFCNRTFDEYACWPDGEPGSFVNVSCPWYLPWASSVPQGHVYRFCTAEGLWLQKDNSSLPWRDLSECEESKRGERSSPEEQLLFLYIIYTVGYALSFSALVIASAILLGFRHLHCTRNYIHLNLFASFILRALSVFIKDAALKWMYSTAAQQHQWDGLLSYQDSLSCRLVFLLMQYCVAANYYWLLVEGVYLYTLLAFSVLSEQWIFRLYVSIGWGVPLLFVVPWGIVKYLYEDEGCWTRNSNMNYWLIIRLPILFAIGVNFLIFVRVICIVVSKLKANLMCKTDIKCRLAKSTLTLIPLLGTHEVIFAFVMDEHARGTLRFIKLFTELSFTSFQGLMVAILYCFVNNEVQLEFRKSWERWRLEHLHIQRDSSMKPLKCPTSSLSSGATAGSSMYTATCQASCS
- protocol: Functional cAMP activity in the presence of 1% HSA
- Assay type: cell-based
- details: read-out: cAMP Rel EC50, hGLP-1R
Starred links: 1 amine or outer side, 2 acyl side, 3 side chain; linkers in the order of their positions; H or OH if unused. Non-standard residues stand in square brackets, D forms with d. Groups on a side chain read outwards from the residue. No end group written: not given here. *: point of attachment. C20 diacid = O=C(O)CCCCCCCCCCCCCCCCCCC(=O)*; C18 diacid = O=C(O)CCCCCCCCCCCCCCCCC(=O)*; αMePhe(2-F) = C[C@](N)(Cc1ccccc1F)C(=O)O; γGlu = O=C(O)[C@H](CCC(=O)[*:2])N[*:1]; αMe4Pal = C[C@](N)(Cc1ccncc1)C(=O)O; αMeY = C[C@](N)(Cc1ccc(O)cc1)C(=O)O; 4Pal = N[C@@H](Cc1ccncc1)C(=O)O; αMeL = CC(C)C[C@](C)(N)C(=O)O; αMeS = C[C@](N)(CO)C(=O)O; Orn = NCCC[C@H](N)C(=O)O; AEEA = NCCOCCOCC(=O)O; Aib = CC(C)(N)C(=O)O
Task for the reader: assign each of the following substances its reported EC50.
Please state the figure in nM; there is no need to write the unit.

What EC50 appears in the records for this substance with hGLP-1R (Homo sapiens, UniProt P43220)? H-Y[Aib]QGTFTSDFS[Orn][αMeL]LDKK([AEEA-γGlu-C20 diacid])AQ[Aib]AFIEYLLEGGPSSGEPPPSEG-NH2 [Example 59]
1370

Now the same for H-Y[Aib]QGT[αMePhe(2-F)]TSD[4Pal][αMeS]I[αMeL]LD[Orn]K([γGlu-γGlu-C18 diacid])AQ[Aib][Orn]FI[dE][αMeY]LIEGGPSSGEPPPSEG-NH2 [Example 480]
8.39

Cool, now H-H[Aib]QGT[αMePhe(2-F)]TSDYSILLDKK([AEEA-γGlu-C20 diacid])AA[Aib]AFIEYLIEAGPSSGEPPPSEG-NH2 [Example 298]
70.9

Also Y[Aib]QGTFTSDFS[Orn][αMeL]LDKK([AEEA-γGlu-C18 diacid])AQ[Aib]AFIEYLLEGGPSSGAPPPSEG-NH2 [Example 50] ?
1110

H-Y[Aib]QGT[αMePhe(2-F)]TSD[4Pal][αMeS]I[αMeL]LD[Orn]K([AEEA-γGlu-C18 diacid])AQ[αMe4Pal]EFI[dE][αMeY]LVEGGPSSGEPPPSGE-NH2 [Example 750] , same question.
39.1

Continue with Y[Aib]QGTFTSD[4Pal]SQ[αMeL]LDKK([AEEA-γGlu-C18 diacid])AQ[αMe4Pal]AFIEYLIE[Aib]GPSSGAPPPSGS-NH2 [Example 810]
256

Lookup H-Y[Aib]QGT[αMePhe(2-F)]TSD[4Pal][αMeS]I[αMeL]LD[Orn]K([γGlu-γGlu-C18 diacid])AQ[Aib][Orn]FI[dE][αMeY]LQEGGPSSGEPPPSGTEEE-NH2 [Example 573]
31.6

Also Y[Aib]QGT[αMePhe(2-F)]TSD[4Pal]SI[αMeL]LD[Orn]K([AEEA-γGlu-C18 diacid])AQ[αMe4Pal][Orn]FI[dE][αMeY]LIEGGPSSGEPPPEGTE-NH2 [Example 679] , if possible.
21.6

And what about the substance H-Y[Aib]QGTFTSDYSK[αMeL]LDKK([AEEA-γGlu-C20 diacid])AQQAFIEYLLAGGPSSGEPPPSGE-NH2 [Example 344] ?
523

For Y[Aib]QGTFTSD[4Pal]SQ[αMeL]LDKK([Glu-γGlu-C18 diacid])AQ[αMe4Pal]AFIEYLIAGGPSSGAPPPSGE-NH2 [Example 1086] then?
496
